- Experimental Target: BRAF G466V (Homo sapiens, UniProt P15056, G466V)
- Construct: expressed in transfected cells
- Sequence (P15056 whole entry G466V): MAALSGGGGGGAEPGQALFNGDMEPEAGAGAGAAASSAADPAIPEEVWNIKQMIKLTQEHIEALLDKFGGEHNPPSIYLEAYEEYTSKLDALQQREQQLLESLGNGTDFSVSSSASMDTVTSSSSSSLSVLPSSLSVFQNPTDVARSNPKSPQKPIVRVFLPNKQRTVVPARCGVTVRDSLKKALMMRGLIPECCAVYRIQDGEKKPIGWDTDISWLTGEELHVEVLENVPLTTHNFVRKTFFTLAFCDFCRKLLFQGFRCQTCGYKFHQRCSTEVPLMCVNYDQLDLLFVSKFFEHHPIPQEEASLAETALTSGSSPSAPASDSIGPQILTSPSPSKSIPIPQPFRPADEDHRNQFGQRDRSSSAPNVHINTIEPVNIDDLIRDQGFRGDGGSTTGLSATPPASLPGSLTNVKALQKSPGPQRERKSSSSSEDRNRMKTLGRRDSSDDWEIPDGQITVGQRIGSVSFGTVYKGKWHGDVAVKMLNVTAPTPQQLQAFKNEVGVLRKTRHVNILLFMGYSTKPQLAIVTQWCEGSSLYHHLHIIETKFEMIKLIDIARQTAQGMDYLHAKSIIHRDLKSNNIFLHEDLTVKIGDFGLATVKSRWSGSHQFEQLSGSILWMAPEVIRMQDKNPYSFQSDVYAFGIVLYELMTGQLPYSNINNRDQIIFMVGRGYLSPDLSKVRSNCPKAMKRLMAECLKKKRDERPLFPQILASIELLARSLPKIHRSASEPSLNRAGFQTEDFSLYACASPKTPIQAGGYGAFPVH
- Assay Summary: Cellular assay of target protein degradation, T-Rex 293 cells stably transfected with HA-BRAF G466V (HA immunofluorescence, high content imaging)
- Assay type: cell-based
- Condition Notes: half maximal degradation, T-Rex 293 HA-BRAF G466V; read-out: BRaf G466V DC50
# DC50 annotations

Here's what some known entries look like.
- Compound: "O=C1CCC(N2Cc3cc(N4CC[C@@H]4COc4ccc(-c5cnc6[nH]cc(C(=O)c7c(F)ccc(NS(=O)(=O)N8CC[C@@H](F)C8)c7F)c6c5)cc4)ccc3C2=O)C(=O)N1 (stereo partly drawn) [Compound 15]"
  Test Value: "> 30 nM"
- Compound: "COc1cc(N2CC3(CC(CN4CCN(c5ccc(-c6cnc7[nH]cc(C(=O)c8c(F)ccc(NS(=O)(=O)N9CC[C@@H](F)C9)c8F)c7c6)cc5)CC4)C3)C2)cc2c1C(=O)N(C1CCC(=O)NC1=O)C2 (stereo partly drawn) [Compound 59]"
  Test Value: "1 to 10 nM"
- Compound: "CCCS(=O)(=O)Nc1ccc(F)c(C(=O)c2c[nH]c3ncc(-c4ccc(N5CC6(CN(CC7CCN(c8cc9c(c(OC)c8)C(=O)N([C@@H]8CCC(=O)NC8=O)C9)CC7)C6)C5)cc4)cc23)c1F [Compound 238]"
  Test Value: "1 to 10 nM"
- Compound: "O=C1CC[C@@H](N2Cc3cc(C4CN(CC5CC6(C5)CN(c5ccc(-c7cnc8[nH]cc(C(=O)c9c(F)ccc(NS(=O)(=O)N%10CC[C@@H](F)C%10)c9F)c8c7)cc5)C6)C4)ccc3C2=O)C(=O)N1 [Compound 100]"
  Test Value: "1 to 10 nM"
- Compound: "COc1cc([C@H](O)CCN2CCN(c3ccc(-c4cnc5[nH]cc(C(=O)c6c(F)ccc(NS(=O)(=O)N7CC[C@@H](F)C7)c6F)c5c4)cc3)CC2)cc2c1C(=O)N([C@H]1CCC(=O)NC1=O)C2 [Compound 186]"
  Test Value: "1 to 10 nM"

Task item: # get_value(readout= DC50, system= BRAF G466V (Homo sapiens, UniProt P15056, G466V)) for O=C1CCC(N2Cc3cc(N4CCC(CN5CCN(c6ccc(-c7cnc8[nH]cc(C(=O)c9c(F)ccc(NS(=O)(=O)N%10CC[C@@H](F)C%10)c9F)c8c7)cc6F)CC5)CC4)ccc3C2=O)C(=O)N1 (stereo partly drawn) [Compound 11]
Reply: < 1 nM

Task item: # get_value(readout= DC50, system= BRAF G466V (Homo sapiens, UniProt P15056, G466V)) for O=C1CCC(N2Cc3cc(N4CCC(CN5CC[C@H]6[C@@H](C5)CN6c5ccc(-c6cnc7[nH]cc(C(=O)c8c(F)ccc(NS(=O)(=O)N9CC[C@@H](F)C9)c8F)c7c6)cc5)CC4)ccc3C2=O)C(=O)N1 (stereo partly drawn) [Compound 329]
Reply: 1 to 10 nM

Task item: # get_value(readout= DC50, system= BRAF G466V (Homo sapiens, UniProt P15056, G466V)) for COc1cc(N2CC3(CN(CC4CCN(c5ccc(-c6cnc7[nH]cc(C(=O)c8c(F)ccc(NS(=O)(=O)N9CC[C@@H](F)C9)c8F)c7c6)cc5)CC4)C3)C2)cc2c1C(=O)N([C@@H]1CCC(=O)NC1=O)C2 [Compound 250]
Reply: 1 to 10 nM

Task item: # get_value(readout= DC50, system= BRAF G466V (Homo sapiens, UniProt P15056, G466V)) for CN(CC(F)F)S(=O)(=O)Nc1ccc(F)c(C(=O)c2c[nH]c3ncc(-c4ccc(N5CCC(CN6CCC(c7ccc8c(c7)CN(C7CCC(=O)NC7=O)C8=O)CC6)CC5)cc4)cc23)c1F (stereo not drawn) [Compound 213]
Reply: 1 to 10 nM

Task item: # get_value(readout= DC50, system= BRAF G466V (Homo sapiens, UniProt P15056, G466V)) for O=C1CC[C@H](N2Cc3cc(N4CC5(CN(CC6CCN(c7ccc(-c8cnc9[nH]cc(C(=O)c%10c(F)ccc(NS(=O)(=O)N%11CC[C@@H](F)C%11)c%10F)c9c8)cc7)CC6)C5)C4)ccc3C2=O)C(=O)N1 [Compound 221]
Reply: 1 to 10 nM

Source listed as patent US12180193B2.
